# credit: PubChem BioAssay

As shown below, each of these compounds has a reported composite z-score value.
- Test system: Human papillomavirus type 1a protein E7 (residues 44-93)
- assay method text: HPV1a E7 fragment binders on microarrays, primary screen, biochemical, small-molecule microarray, residues 44-93, 635 nm fluorescence (AID 1108);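 note: E7 fragment applied at 1 µg/mL in TBST for 1 h at 4 C; score combines spot fluorescence with its signal to noise ratio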
- conditions: small-molecule microarray binding, fluorescence 635 nm; higher = more signal
Respond using a number only.

// known answers, use as guide
{"compound": "COc1ccc(C(=O)Nc2ccc(CN3C(=O)[C@]4(O[C@H](CCO)[C@@H]([Si](C)(C)c5ccc(OC)cc5)[C@@H]4C)c4ccccc43)cc2)cc1", "system name": "Human papillomavirus type 1a protein E7 (residues 44-93)", "endpoint value": 1}
{"compound": "COCCOC(=O)N1C(=O)[C@@]2(c3cc(C#CCNC(N)=O)ccc31)[C@H](C(=O)N1CCN(c3ncccn3)CC1)[C@H]1C(=O)O[C@H](c3ccccc3)[C@H](c3ccccc3)N1[C@@H]2c1ccc(OCCO)cc1", "system name": "Human papillomavirus type 1a protein E7 (residues 44-93)", "endpoint value": 1.01}
{"compound": "COc1cc2c(cc1OC)CN(C(=O)[C@@H]1[C@H]3C(=O)O[C@H](c4ccccc4)[C@H](c4ccccc4)N3[C@H](c3ccc(O)cc3)[C@@]13C(=O)Nc1ccccc13)CC2", "system name": "Human papillomavirus type 1a protein E7 (residues 44-93)", "endpoint value": 1.39}

// query Report its composite z-score with Human papillomavirus type 1a protein E7 (residues 44-93) as the test system: CCOC(=O)C[C@H]1[C@H](OC(=O)c2ccc(C(=O)c3ccccc3)cc2)[C@@H](NC(=O)c2ccccc2)c2cc(OCCCO)ccc2N1C(=O)c1ccc2ccccc2n1
// result 1.31

// query Report its composite z-score with Human papillomavirus type 1a protein E7 (residues 44-93) as the test system: C[N+](C)(C)CCCC[C@@H]1NC(=O)[C@H]2C[C@@H](C(=O)NCCCCCCNC(=O)CS)[C@@H](c3cccc(OCCO)c3)N2C1=O
// result -1.51

// query Report its composite z-score with Human papillomavirus type 1a protein E7 (residues 44-93) as the test system: C#C[C@H](O[Si](C#Cc1ccc(Oc2ccccc2)cc1)(C(C)C)C(C)C)c1ccccc1
// result 0.922

// query Report its composite z-score with Human papillomavirus type 1a protein E7 (residues 44-93) as the test system: CN1C(=O)C2C=CC(C(O)C3CC=CCC3)N(N(c3ccccc3)c3ccccc3)C2C1=O (stereo unspecified)
// result -1.02

// query Report its composite z-score with Human papillomavirus type 1a protein E7 (residues 44-93) as the test system: C=C(C)[C@@H]1CC=C(C(O)C2C=CC3C(=O)N(C)C(=O)C3N2Nc2ccccc2)CC1 (stereo partly specified)
// result 1.35

// query Report its composite z-score with Human papillomavirus type 1a protein E7 (residues 44-93) as the test system: C=C[C@H](OC)[C@@H](OC(=O)Nc1ccc(OC)cc1)c1ccc(O)c(F)c1
// result 0.625

// query Report its composite z-score with Human papillomavirus type 1a protein E7 (residues 44-93) as the test system: CCOC(=O)C[C@H]1[C@H](OC(=O)c2ccc(C(=O)c3ccccc3)cc2)[C@@H](NC(=O)c2ccc3ccccc3c2)c2cc(OCCCO)ccc2N1C(=O)Cc1ccc(OC)cc1
// result 0.86

// query Report its composite z-score with Human papillomavirus type 1a protein E7 (residues 44-93) as the test system: CC(C)C(CO)N1C(=O)[C@@H]2C3C(=O)OCCC/C=C\[C@H]3OC23C=CCN(CCN2CCOCC2)C(=O)[C@@H]13 (stereo partly specified)
// result -0.729

###

- assay method text: small-molecule microarray binders of probe aNog, primary screen, biochemical, biotinylated probe, 635/667 nm fluorescence (AID 1115);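 note: probe is biotinylated aNog protein used at 0.15 µg/mL for 1 h at 4 C; z-score combines 667 nm fluorescence of each spot with its signal to noise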
- conditions: higher = more signal
As shown below, each of these compounds has a reported composite z-score value.
Respond using a number only.

{"compound": "CC1CC/C=C\\[C@H]2OC34C=CCN(Cc5ccccc5)C(=O)[C@H]3N(CCCO)C(=O)[C@@H]4C2C(=O)O1 (stereo partly specified)", "composite z-score": 0.0522}
{"compound": "C[C@H]1NC(=O)[C@@]23C(=O)N[C@@H](Cc4ccccc4)C2[C@H](C)[C@@]2(C)O[C@H]2C3/C=C/C/C=C\\CNC(=O)[C@@H]2CCCN2C1=O (stereo partly specified)", "composite z-score": -0.0841}

// query Give the reported composite z-score for this compound. CC#CC(=O)Oc1ccccc1C=CC(=O)OCC
// result -0.256

###

- system name: Left-right determination factor 2 (Homo sapiens) (UniProt O00292)
- Sequence (O00292 whole entry, looked up): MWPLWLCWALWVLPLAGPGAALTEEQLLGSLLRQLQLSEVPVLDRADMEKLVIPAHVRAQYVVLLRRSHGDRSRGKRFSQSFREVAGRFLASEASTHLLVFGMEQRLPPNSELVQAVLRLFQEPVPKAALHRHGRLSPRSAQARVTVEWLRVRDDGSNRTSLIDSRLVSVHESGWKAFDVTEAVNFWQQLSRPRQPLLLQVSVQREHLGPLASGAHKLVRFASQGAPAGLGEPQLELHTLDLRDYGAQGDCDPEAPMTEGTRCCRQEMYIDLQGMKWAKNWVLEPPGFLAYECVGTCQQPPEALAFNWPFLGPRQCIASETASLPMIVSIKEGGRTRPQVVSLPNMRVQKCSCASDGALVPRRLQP
- assay method text: LEFTY2 binders on small-molecule microarrays, primary screen, biochemical, small-molecule microarray, 635 nm fluorescence scan (AID 1110)
- conditions: LEFTY2 binding, higher = more signal
Binning of composite z-score into classes: range A = under -0.5, range B = from -0.5 up to 0.5, range C = 0.5 and over

A selection of reference data follows.
{"molecule": "COc1ccc([Si](C)(C)[C@H]2[C@H](CC(=O)N3Cc4ccccc4C[C@H]3CO)O[C@@]3(C(=O)N(Cc4cccc(N5CCC5=O)c4)c4ccccc43)[C@@H]2C)cc1", "group": "range C"}
{"molecule": "COC(=O)[C@@]1(Cc2ccc(F)cc2)[C@H]2c3cc(C(=O)N(C)C)n(Cc4cc(F)c(F)c(F)c4)c3C[C@H]2CN1C(=O)c1ccccc1", "group": "range B"}
{"molecule": "C=CCNC(=O)[C@@H]1[C@H]2C(=O)O[C@H](c3ccccc3)[C@H](c3ccccc3)N2[C@H](c2ccc(OCCO)cc2)[C@@]12C(=O)Nc1ccc(C#CCC(C(=O)OC)C(=O)OC)cc12", "group": "range C"}
{"molecule": "[N-]=[N+]=Nc1ccccc1[C@H]1OC(c2ccc(OCCCO)cc2)=N[C@@]1(CCS(=O)(=O)c1ccccc1)C(N)=O", "group": "range B"}
{"molecule": "CCOC(=O)C[C@H]1[C@H](OC(=O)c2ccc(C(=O)c3ccccc3)cc2)[C@@H](NC(=O)CC(C)C)c2cc(OCCCO)ccc2N1C(=O)c1ccc2ccccc2n1", "group": "range C"}

// query Looking at NC(=O)NCC#Cc1ccc2c(c1)[C@]1(C(=O)N2)[C@H](C(N)=O)[C@H]2C(=O)O[C@H](c3ccccc3)[C@H](c3ccccc3)N2[C@@H]1c1ccc(O)cc1 , which class would you pick?
// result range A

// query Looking at CC(C)=CCCC(C)=CC(O)C1C=CC2C(=O)N(C)C(=O)C2N1Nc1ccccc1 (configuration not stated) , which class would you pick?
// result range B

// query Looking at CN1C(=O)C2C=CC(C(O)C#Cc3ccccc3)N(N3CCCCC3)C2C1=O (configuration not stated) , which class would you pick?
// result range B

###

As shown below, each of these molecules has a reported z-score value.
- assay method text: S. cerevisiae growth modulation with rapamycin, primary screen, strain BY4716, OD600, 96 h (AID 1091); note: test concentration not given here
- conditions: higher = more signal, called active from +8 up or from −8 down
Respond using a number only.

// query Give the reported z-score for this molecule. CCC(CC)C(O)C1C=CC2C(=O)NC(=O)C2N1Nc1ccc(Cl)cc1Cl (stereo unspecified)
// result 1.34

// query Give the reported z-score for this molecule. O=C1c2ccccc2[C@](Cc2ccccc2I)(C(=O)NCCN2CCOCC2)[C@H](c2ccc(CO)cc2)N1C1CCCCC1
// result 0.216

// query Give the reported z-score for this molecule. O=C1OCCC/C=C\[C@H]2OC34C=CCN(Cc5ccccc5)C(=O)[C@H]3N(CCCO)C(=O)[C@@H]4C12 (stereo partly specified)
// result 0.972

// query Give the reported z-score for this molecule. C=C(CCCC)/C(=C/C[C@@H](OC(=O)c1ccncc1)c1ccc(OCCO)cc1)c1cc(C(=O)OC)ccc1OC
// result 0.279

// query Give the reported z-score for this molecule. CCC[C@@H]1C[C@@]1(CCC)[C@@H](NC(=O)c1ccccc1)c1cccc(Cl)c1
// result 2.12

// query Give the reported z-score for this molecule. CCOC(=O)C[C@H]1[C@H](OC(=O)c2ccc(-c3ccccc3)cc2)[C@@H](NC(=O)Cc2ccc(OC)cc2)c2cc(OCCCO)ccc2N1C(=O)c1ccccc1
// result 0.72

###

- Tested on: wheat germ agglutinin (Triticum aestivum), Alexa647-labelled
- assay method text: wheat germ agglutinin binders on compound microarrays, profiling panel, artefact control for SMM control-protein annotation, biochemical, small-molecule microarray, 635/667 nm fluorescence (AID 1140);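 note: score merges 667 nm feature emission with signal to noise over triplicate slides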
- conditions: WGA-A647 binding, 635 nm fluorescence, higher = more signal
Binning of composite z-score into classes: one: < 0.7; two: ≥ 0.7 and < 0.9; three: ≥ 0.9

// query Looking at C=CCNC(=O)[C@H]1[C@@H]2C(=O)O[C@@H](c3ccccc3)[C@@H](c3ccccc3)N2[C@@H](c2ccccc2OCCO)[C@]12C(=O)Nc1ccc(C#CCCO)cc12 , which class would you pick?
// result one

// query Looking at CN(C)CCCC[C@@H]1NC(=O)[C@@H]2C[C@H](C(=O)NCCCCCCN)[C@H](c3cccc(OCCO)c3)N2C1=O , which class would you pick?
// result three

// query Looking at CC(C)CNC(=O)[C@@]1(Cc2ccccc2I)c2ccccc2C(=O)N(C2CCCCC2)[C@H]1c1ccc(CO)cc1 , which class would you pick?
// result two

// query Looking at C=C(CCCC)C(=O)CC[C@@H](OC(=O)c1ccccc1-c1ccccc1C(=O)O)c1ccc(OCCO)cc1 , which class would you pick?
// result one

// query Looking at COC(=O)[C@@]1(Cc2ccc(OC)cc2)[C@H]2c3cc(C(=O)N(C)C)n(C)c3C[C@H]2CN1C(=O)c1ccccc1 , which class would you pick?
// result three

// query Looking at COc1cc2c(cc1OC)CN(C(=O)[C@H]1[C@@H]3C(=O)O[C@@H](c4ccccc4)[C@@H](c4ccccc4)N3[C@@H](c3ccc(O)cc3)[C@]13C(=O)Nc1ccccc13)CC2 , which class would you pick?
// result one

// query Looking at CC(C)C(=C=CC[C@H](O)c1ccc(OCCO)cc1)CCO , which class would you pick?
// result one

// query Looking at CCC(CC)C(O)C1C=CC2C(=O)NC(=O)C2N1Nc1ccc(Cl)cc1Cl (centres undefined) , which class would you pick?
// result two

// query Looking at COc1cc2c(cc1OC)CN(C(=O)[C@@H]1[C@H]3C(=O)O[C@H](c4ccccc4)[C@H](c4ccccc4)N3[C@H](c3ccc(O)cc3)[C@@]13C(=O)Nc1ccccc13)CC2 , which class would you pick?
// result three

// query Looking at NC(=O)N1C(=O)C2C(C1=O)C1C=C(c3ccc(CO)cc3)C2C(c2cccs2)N1Cc1cccc(OC(F)(F)F)c1 (centres undefined) , which class would you pick?
// result three

// query Looking at COCCOC(=O)N1C(=O)[C@@]2(c3cc(C#CCC(C(=O)OC)C(=O)OC)ccc31)[C@H](C(=O)N1CCN(c3ncccn3)CC1)[C@H]1C(=O)O[C@H](c3ccccc3)[C@H](c3ccccc3)N1[C@@H]2c1ccccc1OCCO , which class would you pick?
// result two

// query Looking at CCS[C@H]1[C@@H](C(=O)O)[C@H](c2ccc(C)cc2)N(S(=O)(=O)c2ccc(C)cc2)[C@@H]1CC , which class would you pick?
// result one

// query Looking at CCCC=C(CCC)[C@@H](NC(=O)c1cccs1)c1ccc(C(F)(F)F)cc1 , which class would you pick?
// result two
